Give AmyQ secretion efficiency for every item shown.
# Test system: Bacillus subtilis DB104 (SP-AmyQ fusion secretion)
# Measurement protocol: AmyQ secretion efficiency, weighted average sort bin (1 = best secretion, 10 = worst) (bin number (weighted average, 1-10)); higher = lower secretion efficiency
# answer = number (no unit)

The reported value for "MKKRLIAPMLLSAASLAFFAMSGSAQVAAY" in terms of AmyQ secretion efficiency is 5.79

The reported value for "MKMKSGMEQAVSVLLLLSRLPVQYSLTSE" in terms of AmyQ secretion efficiency is 5.01

The reported value for "MIKKLAAGLTASAIVGTTLVVTPAEAATI" in terms of AmyQ secretion efficiency is 2.3

The reported value for "MTKKAWFLPLVCVLLIDEDLAPAASASAQTT" in terms of AmyQ secretion efficiency is 2.58

The reported value for "MIRSISIFITCLLITLLTMGGMIASPASAAGT" in terms of AmyQ secretion efficiency is 2.35

The reported value for "MKNMSCKLVVSVTLFFSFLTIGPLYHAQNS" in terms of AmyQ secretion efficiency is 5.32

The reported value for "MKKIMSARKRRRKLTIFCFSPQASAAYD" in terms of AmyQ secretion efficiency is 6.63

The reported value for "MKKIMSAFVGMVLLTIFCKKRKRRASAAYD" in terms of AmyQ secretion efficiency is 7.21

The reported value for "MKIRKILLSSALSFGMLKKRRKKALAAGT" in terms of AmyQ secretion efficiency is 6.86

The reported value for "MKLAKRVSALTPSTTLAITFKAKEL" in terms of AmyQ secretion efficiency is 6.49

The reported value for "MNLRKIMSIMNIILLSSALSLGMLVSAAPVLATSS" in terms of AmyQ secretion efficiency is 2.04

The reported value for "MKWMCKRCCRRKRLAGGAAQAEAV" in terms of AmyQ secretion efficiency is 7.06

The reported value for "MKLWMRKTLVVLFTIVTFGLVSPPAALMIDKP" in terms of AmyQ secretion efficiency is 2.83

The reported value for "MKKKKRKFVLIVCIIFTSALFPTFSSVTAAQG" in terms of AmyQ secretion efficiency is 1.03

The reported value for "MKLSVKIAGVLTVAAAAMTAKMYATKKGN" in terms of AmyQ secretion efficiency is 8.52

The reported value for "MKKWMITIAMLILAGIALFVFIFSPLKSHKT" in terms of AmyQ secretion efficiency is 7.63

The reported value for "MTKLKMLSMLTVMIASLFIFSSQCLAVQY" in terms of AmyQ secretion efficiency is 2.27

The reported value for "MKRKKCSICCAAVLLAGGAAQAEAV" in terms of AmyQ secretion efficiency is 6.17

The reported value for "MGMKKKLSLGVASAALGLALVGGGWWAAFN" in terms of AmyQ secretion efficiency is 7.18

The reported value for "MKKWMITIAMLILAGIALFVFISPLKRHKT" in terms of AmyQ secretion efficiency is 7.32

The reported value for "MKKWRGGSQSGAIAIVLFMYTKGEAKAAGM" in terms of AmyQ secretion efficiency is 6.49

The reported value for "MSTSTSSSLISSTVLSTVVISSLLFPGAAGASSK" in terms of AmyQ secretion efficiency is 2.7

The reported value for "MKKQIKKKKTAVVLGSTLFAGAASAQSI" in terms of AmyQ secretion efficiency is 7.3

The reported value for "MKKKKRRIVSILFMFGLVMGFSQFQPSTVFAADK" in terms of AmyQ secretion efficiency is 3.29

The reported value for "MKRSISIFITCLLITLLKRKGMIASPASAAGT" in terms of AmyQ secretion efficiency is 5.06

The reported value for "MRSYIKVLTMCFLGLILFVPTALNDNS" in terms of AmyQ secretion efficiency is 6.3

The reported value for "MFNRLFRVCFLAALIMAFDDDNSVYAQKP" in terms of AmyQ secretion efficiency is 2.33

The reported value for "MKRFSTAYLLLGILCSAAVFLIGAPSRALGAPV" in terms of AmyQ secretion efficiency is 1.61

The reported value for "MKKRITLLALLAVVAFAFTDSSKAKAAEA" in terms of AmyQ secretion efficiency is 3.06

The reported value for "MRKKLKWLSFLLGFIILLFLFKYQFSFNDS" in terms of AmyQ secretion efficiency is 6.3

The reported value for "MKKKRKKGGTGSAIVGTTLVVTPAEAATI" in terms of AmyQ secretion efficiency is 7.88

The reported value for "MLTKRLLTIYIMLLGLILAWFPGAAQAEEK" in terms of AmyQ secretion efficiency is 2.09

The reported value for "MKLKSKLFVICLAAATAAGVSANAEALDF" in terms of AmyQ secretion efficiency is 5.89

The reported value for "MRNLTKTSLLLAGLCTAAQMVFVTHASGEES" in terms of AmyQ secretion efficiency is 2.76

The reported value for "MKKIVSILFMFGLVMGFSQFQPSTVFAASP" in terms of AmyQ secretion efficiency is 1.65

The reported value for "MMIKQCVICLSLLVFGTEDEEEEAHAEET" in terms of AmyQ secretion efficiency is 6.81

The reported value for "MLTKRLLTIYIMLLMLIAWFPGAAQAEEK" in terms of AmyQ secretion efficiency is 1.61

The reported value for "MLKKIALTLCPAIVGSLLFFTAGASAHVS" in terms of AmyQ secretion efficiency is 3.12

The reported value for "MKKVMLATALFLGLTPAGANAARR" in terms of AmyQ secretion efficiency is 4.33

The reported value for "MKKKLAAGLTASAIVGTVTPAEAATI" in terms of AmyQ secretion efficiency is 5.84

The reported value for "MFKFKKNFLFLVGLSAALMSISLFSATASAAST" in terms of AmyQ secretion efficiency is 1.42

The reported value for "MKLAKRVSALTPSTTLAITAKAAPL" in terms of AmyQ secretion efficiency is 8.19

The reported value for "MIAYFGKCLLLVTIMFLGVLFGMFATQQANHG" in terms of AmyQ secretion efficiency is 6.56

The reported value for "MKSKGSIMACLILFSFTITTFINTETISVFSN" in terms of AmyQ secretion efficiency is 7.71

The reported value for "MKSCKQLIVCSLAAILLLKRKKKRSFAADS" in terms of AmyQ secretion efficiency is 7.68

The reported value for "MRSYIKVLTMCFLGLILFVPTALMDNS" in terms of AmyQ secretion efficiency is 6.46

The reported value for "MLGIRLLTIYIMLLGLIAWFPGAAQAEEK" in terms of AmyQ secretion efficiency is 2.38

The reported value for "MKKRKRRNFKRFIAAFLVLALMISLVPADVLAAKR" in terms of AmyQ secretion efficiency is 5.17

The reported value for "MKKSQYGGQTFGLVMGFSQFQPSTVFAADK" in terms of AmyQ secretion efficiency is 6.36

The reported value for "MKRKLLSSLAISALSLGLLVSAPTASFVAES" in terms of AmyQ secretion efficiency is 6.45

The reported value for "MKKKQVMLALTAAAGLGLTALHSAPAGKAAPL" in terms of AmyQ secretion efficiency is 5.58

The reported value for "MKKAFLVFLMVVLVLMVFLTVKQQESVAQAKQL" in terms of AmyQ secretion efficiency is 3.05

The reported value for "MKNMSCKLVVSVTLFFSFLTIGPLVFPFAHAQNS" in terms of AmyQ secretion efficiency is 4.97

The reported value for "MKKRLIAPMLLSAASLAFFAMSGSRQAAAY" in terms of AmyQ secretion efficiency is 6.03

The reported value for "MTMLRKIIGWILLLCIIPLFAFTVIASGASK" in terms of AmyQ secretion efficiency is 7.69
